Assay: qHTS for Inhibitors of Inflammasome Signaling: IL-1-beta AlphaLISA Primary Screen; also: % is scaled to controls: 0 for no effect and ±100 for the full control effect
Conditions: THP-1 LPS/ATP IL-1B secretion, 16 h; at 57.5 µM, stronger effect = lower value
Text: Inflammasomes are a set of intracellular multi-protein complexes that enable autocatalytic activation of inflammatory caspases and drive the innate immune response to counter harmful agents. […] A qHTS assay, based on AlphaLISA technology, was developed to screen the Molecular Libraries Small Molecule Repository (MLSMR) to look for novel inflammasome inhibitors. The assay detects IL-1B using AlphaLISA anti-IL-1B acceptor and donor beads. […]
In all, about 360,000 compounds went through this assay and about 17,000 (4.7%) were called active. Not shown: some 5% with an inconclusive outcome. The sample holds actives, similar compounds and a random draw of the others, so the mix is not that of the screen.
assay metric: activity change (%)
Numbers only; they are read as %.

Use these answered entries as a reference point.
compound: Cc1c(C(=O)N2CCCc3ccccc32)oc2ccccc12
measure unit: %
activity change: 3.03
--
compound: Cc1sc2nc(-c3ccccc3F)oc(=O)c2c1C
measure unit: %
activity change: 43.9
--
compound: Cc1ccc(C(=O)N/C(=C/c2ccc(-c3cccc([N+](=O)[O-])c3)o2)C(=O)NCCCN(C)C)cc1
measure unit: %
activity change: -105
--
compound: COc1ccc(-c2ccc3c(c2)C2CC3CCN2CCC#N)cc1 (stereo unspecified)
measure unit: %
activity change: 12.2
--
compound: CC1(C(=O)NS(=O)(=O)c2ccccc2)CCN1C(=O)Cc1ccc(-c2ccccc2)cc1 (stereo unspecified)
measure unit: %
activity change: -14.7
--
compound: COc1ccc(-c2csc3nc(-c4ccccc4F)oc(=O)c23)cc1OC
measure unit: %
activity change: -84.4
--
compound: Cc1nnc(SC(C)C(=O)c2c[nH]c3ccccc23)n1C1CC1 (stereo unspecified)
measure unit: %
activity change: 0
--
compound: O=S(=O)(NCc1ccco1)c1cnc(Cl)c(Cl)c1
measure unit: %
activity change: -67.1

Item: "COc1ccccc1-c1nnc(-c2ccc(F)cc2)o1" | activity change: 6.31

activity change in this record for O=S(=O)(NCC1CCCO1)c1ccc2ccccc2c1 (stereo unspecified) : 1.02

The compound listed as "Cc1ccc(C(=O)N2CCCc3ccccc32)c(Cl)c1" shows activity change equal to 64.5

###

experiment: qHTS for Inhibitors of Inflammasome Signaling: IL-1-beta AlphaLISA Primary Screen; settings: THP-1 LPS/ATP IL-1B secretion, 16 h; at 57.5 µM, stronger effect = lower value
In all, about 360,000 compounds went through this assay and about 17,000 (4.7%) were called active. Not shown: some 5% with an inconclusive outcome. The entries come from a sample that favours actives as a whole.
assay metric: activity change (%)
Field: numeric (%). Do not append units.

// solved cases for activity change follow
molecule: CC(C)(C)C1CCC(=O)N2CCC[C@]2(c2ccccc2)C1 (stereo partly specified)
result value: 0.891

molecule: CC(=O)CSc1nc(CCc2ccccc2)c(C#N)c(=O)[nH]1
result value: 3.36

molecule: Cc1cccc(C(=O)Nc2ccc3c(c2)C(=O)N(CC(C)C)C3=O)c1
result value: 0.513

Lab note: measured activity change of Cc1ccc(CCN2CC(C(=O)O)CC2=O)cc1 (stereo unspecified) was -6.28

Reported activity change for O=C1CSC(c2ccc(Cl)cc2)N1 (stereo unspecified) was 0

molecule "COCCn1c(SCC(=O)Nc2ccc(F)cc2F)nc2c(c1=O)SCC2" , activity change observed: 18.2

The molecule listed as "Cc1ccc(C)c(NC(=O)c2cc(-c3cc(C)cc(C)c3O)n[nH]2)c1" shows activity change equal to -93.5

The recorded activity change for "CN1CCN(S(=O)(=O)c2cccc(C(=O)Nc3cccc(S(N)(=O)=O)c3)c2)CC1" is 6.7

activity change reading for "O=c1[nH]c2ccccc2n1C1CCN(CCOc2ccccc2)CC1" : -51.9

Notebook: "COc1cc(N/C=C2\CC(=O)NC(C)=C2C#N)cc(OC)c1OC" , activity change read as 18.8

Just so you know, measured activity change for "CC(C)CCN1C(=O)c2ccc(C(=O)Nc3cccc(S(N)(=O)=O)c3)cc2C1=O" came out at -61
